# credit: the RNAGym collection of RNA variant scans (doi:10.7554/elife.80360)

B1: Hairpin Ribozyme (parent)
chain: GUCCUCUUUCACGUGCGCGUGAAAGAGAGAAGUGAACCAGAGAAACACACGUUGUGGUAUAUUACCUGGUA

Variants of: B1
Assay: self-cleavage, relative activity (ratio to wild type); higher = more cleavage; co-transcriptional
Use MET when the recorded self-cleavage is no lower than 0.5; use NOT MET when it is lower.

Lookup: Is self-cleavage for U5A A44U at or above 0.5?
Found: NOT MET

Lookup: Is self-cleavage for U52G G57C at or above 0.5?
Found: NOT MET

Lookup: Is self-cleavage for G21U A41U at or above 0.5?
Found: MET

Lookup: Is self-cleavage for A35G G69U at or above 0.5?
Found: NOT MET

Lookup: Is self-cleavage for A23G A43C at or above 0.5?
Found: NOT MET

Lookup: Is self-cleavage for C18A G29C at or above 0.5?
Found: NOT MET

Lookup: Is self-cleavage for G15A G54U at or above 0.5?
Found: MET

Lookup: Is self-cleavage for C4A U58C at or above 0.5?
Found: NOT MET

Lookup: Is self-cleavage for G13U A35U at or above 0.5?
Found: MET

Lookup: Is self-cleavage for A41G U58A at or above 0.5?
Found: NOT MET

Lookup: Is self-cleavage for G42C U63C at or above 0.5?
Found: NOT MET

Lookup: Is self-cleavage for A45G C50G at or above 0.5?
Found: NOT MET

Lookup: Is self-cleavage for U7A A41G at or above 0.5?
Found: MET

Lookup: Is self-cleavage for G19C A45G at or above 0.5?
Found: NOT MET

Lookup: Is self-cleavage for G17A G34C at or above 0.5?
Found: MET

Lookup: Is self-cleavage for A23U U53C at or above 0.5?
Found: MET

Lookup: Is self-cleavage for A11U G42U at or above 0.5?
Found: NOT MET

Lookup: Is self-cleavage for C10U C37G at or above 0.5?
Found: NOT MET

Lookup: Is self-cleavage for G17A A26G at or above 0.5?
Found: MET

Lookup: Is self-cleavage for A30C A35U at or above 0.5?
Found: NOT MET

Lookup: Is self-cleavage for G1C A35U at or above 0.5?
Found: NOT MET

Lookup: Is self-cleavage for G15A C46A at or above 0.5?
Found: NOT MET

Lookup: Is self-cleavage for A22G U62G at or above 0.5?
Found: NOT MET

Lookup: Is self-cleavage for A23U G51C at or above 0.5?
Found: MET

Lookup: Is self-cleavage for A31U A47C at or above 0.5?
Found: NOT MET

Lookup: Is self-cleavage for G27A at or above 0.5?
Found: NOT MET

Lookup: Is self-cleavage for A23G G51C at or above 0.5?
Found: MET

Lookup: Is self-cleavage for C46U G54A at or above 0.5?
Found: NOT MET

Lookup: Is self-cleavage for G19C A35C at or above 0.5?
Found: MET

Lookup: Is self-cleavage for G1A G68A at or above 0.5?
Found: NOT MET

Lookup: Is self-cleavage for G25A G29A at or above 0.5?
Found: NOT MET

Lookup: Is self-cleavage for C12G A39U at or above 0.5?
Found: NOT MET

Lookup: Is self-cleavage for G19C at or above 0.5?
Found: MET

Lookup: Is self-cleavage for G32A A39C at or above 0.5?
Found: NOT MET

Lookup: Is self-cleavage for U9C U33A at or above 0.5?
Found: NOT MET

Lookup: Is self-cleavage for A30G A44U at or above 0.5?
Found: NOT MET

Lookup: Is self-cleavage for G21C C66G at or above 0.5?
Found: NOT MET

Lookup: Is self-cleavage for G19C A61U at or above 0.5?
Found: NOT MET

Lookup: Is self-cleavage for A11G A41U at or above 0.5?
Found: MET

Lookup: Is self-cleavage for U20G G57U at or above 0.5?
Found: NOT MET

Lookup: Is self-cleavage for A26C C66A at or above 0.5?
Found: NOT MET

Lookup: Is self-cleavage for A11G A31G at or above 0.5?
Found: MET

Lookup: Is self-cleavage for U7A G15C at or above 0.5?
Found: MET

Lookup: Is self-cleavage for G17U G34U at or above 0.5?
Found: MET

Lookup: Is self-cleavage for U33G A47G at or above 0.5?
Found: NOT MET
